test system: CYP3A4; test: in vitro; settings: human, microsomes
Below, each entry is listed with its recorded inhibition at 10 min, 10 µM.
Express your answer in %, writing the number without its unit.

molecule="Cc1n[nH]c2nc(-c3ccc(NS(=O)(=O)c4cc(C(F)(F)F)ccn4)cc3)nc(O[C@@H]3CCN(C)C[C@@H]3F)c12 [Compound 63]" reportedmeasurement=-2
molecule="Cc1n[nH]c2nc(-c3ccc(NS(=O)(=O)c4cc(F)ccc4F)c(Cl)c3)nc(NCCN(C)C)c12 [Compound 85]" reportedmeasurement=-2.9
molecule="Cc1n[nH]c2nc(-c3ccc(NS(=O)(=O)c4cc(F)ccc4F)c(F)c3)nc(NCCN(C)C)c12 [Compound 84]" reportedmeasurement=3
molecule="Cc1n[nH]c2nc(-c3ccc(NS(=O)(=O)c4cc(Cl)ccc4F)cc3)nc(O[C@@H]3CCNC[C@@H]3F)c12 [Compound 29]" reportedmeasurement=77
molecule="Cc1n[nH]c2nc(-c3ccc(NS(=O)(=O)N4CCCC4)cc3)nc(OC3CCN(C(C)C)CC3)c12 [Compound 2]" reportedmeasurement=13

Alright, here's another molecule for you.
Ask: Given the entry Cc1n[nH]c2nc(-c3ccc(NS(=O)(=O)c4cc(Cl)ccc4F)cc3)nc(O[C@@H]3CCNCC3(F)F)c12 [Compound 44] , report its measured inhibition at 10 min, 10 µM.
Result: 91

----------
test: in vivo; details: male, SD, rat, po, 30 mg/kg
recordedMetric: bioavailability (%)
Express your answer in %, writing the number without its unit.

compoundstructurestring=Cc1n[nH]c2nc(-c3ccc(NS(=O)(=O)c4cc(F)ccc4F)c(F)c3)nc(NCCN(C)C)c12 recordedmetric=bioavailability reportedmeasurement=17.9
compoundstructurestring=Cc1n[nH]c2nc(-c3ccc(NS(=O)(=O)c4cc(Cl)ccc4F)c(Cl)c3)nc(NCCN(C)CCO)c12 recordedmetric=bioavailability reportedmeasurement=5.6
compoundstructurestring=Cc1n[nH]c2nc(-c3ccc(NS(=O)(=O)c4cc(F)ccc4F)cc3)nc(NCCN(C)C)c12 recordedmetric=bioavailability reportedmeasurement=4.68
compoundstructurestring=Cc1n[nH]c2nc(-c3ccc(NS(=O)(=O)c4cc(Cl)ccc4F)c(Cl)c3)nc(OC3CCN(C)CC3)c12 recordedmetric=bioavailability reportedmeasurement=75
compoundstructurestring=Cc1n[nH]c2nc(-c3ccc(NS(=O)(=O)c4cc(F)ccc4F)c(F)c3)nc(O[C@@H]3CCNC[C@@H]3F)c12 recordedmetric=bioavailability reportedmeasurement=5.3

Alright, here's another compound for you.
Ask: Given the entry Cc1n[nH]c2nc(-c3ccc(NS(=O)(=O)c4cc(Cl)ccc4F)cc3)nc(NCCN(C)CCO)c12 , report its measured bioavailability.
Result: 2.79

----------
tested on: CYP3A4; experiment: in vitro; conditions: human, microsomes
recordedMetric: inhibition at 5 min, 10 µM (%)
Express your answer in %, writing the number without its unit.

Look over these answered cases.
compoundstructurestring=Cc1n[nH]c2nc(-c3ccc(NS(=O)(=O)c4cc(Cl)ccc4F)cc3)nc(O[C@@H]3CCNC[C@@H]3F)c12 reportedmeasurement=54
compoundstructurestring=Cc1n[nH]c2nc(-c3ccc(NS(=O)(=O)c4cc(F)ccc4F)c(F)c3)nc(NCCN(C)C)c12 reportedmeasurement=0.5
compoundstructurestring=Cc1n[nH]c2nc(-c3ccc(NS(=O)(=O)c4cc(Cl)ccc4F)cc3)nc(O[C@@H]3CCNCC3(F)F)c12 reportedmeasurement=93
compoundstructurestring=Cc1n[nH]c2nc(-c3ccc(NS(=O)(=O)c4cc(C(F)(F)F)ccn4)cc3)nc(O[C@@H]3CCN(C)C[C@@H]3F)c12 reportedmeasurement=-24
compoundstructurestring=Cc1n[nH]c2nc(-c3ccc(NS(=O)(=O)c4cc(F)ccc4F)c(Cl)c3)nc(NCCN(C)C)c12 reportedmeasurement=19

Alright, here's another compound for you.
Ask: Could you share what inhibition at 5 min, 10 µM was measured for Cc1n[nH]c2nc(-c3ccc(NS(=O)(=O)N4CCCC4)cc3)nc(OC3CCN(C(C)C)CC3)c12 , tested on CYP3A4?
Result: 7

----------
Below, each entry is listed with its recorded log10 of Cmax.
test: in vivo; conditions: male, SD, rat, po, 30 mg/kg, pK Data in Rat: Cmax
All values: log10 Cmax [ng/mL].

Look over these answered cases.
compound="Cc1n[nH]c2nc(-c3ccc(NS(=O)(=O)c4cc(F)ccc4F)c(F)c3)nc(NCCN(C)C)c12 [Compound 84]" reportedmeasurement=3.39
compound="Cc1n[nH]c2nc(-c3ccc(NS(=O)(=O)c4cc(Cl)ccc4F)c(Cl)c3)nc(NCCN(C)CCO)c12 [Compound 99]" reportedmeasurement=2.15
compound="Cc1n[nH]c2nc(-c3ccc(NS(=O)(=O)c4cc(Cl)ccc4F)cc3)nc(NCCN(C)CCO)c12 [Compound 22]" reportedmeasurement=1.62
compound="Cc1n[nH]c2nc(-c3ccc(NS(=O)(=O)c4cc(F)ccc4F)cc3)nc(NCCN(C)C)c12 [Compound 45]" reportedmeasurement=2.12
compound="Cc1n[nH]c2nc(-c3ccc(NS(=O)(=O)c4cc(F)ccc4F)c(Cl)c3)nc(NCCN(C)C)c12 [Compound 85]" reportedmeasurement=3.44

Ask: Given the entry Cc1n[nH]c2nc(-c3ccc(NS(=O)(=O)c4cc(Cl)ccc4F)c(F)c3)nc(OC3CCN(C(C)C)CC3)c12 [Compound 28] , report its measured log10 of Cmax.
Result: 3.60

Ask: Given the entry Cc1n[nH]c2nc(-c3ccc(NS(=O)(=O)c4cc(Cl)ccc4F)c(F)c3)nc(NCCN(C)CCO)c12 [Compound 78] , report its measured log10 of Cmax.
Result: 1.84

----------
Below, each entry is listed with its recorded solubility at 2 h.
assay: physchem; conditions: 25 °C, pH 5, fessif, kinetic from dmso stock
Express your answer in µM, writing the number without its unit.

Look over these answered cases.
compoundstructurestring=Cc1n[nH]c2nc(-c3ccc(NS(=O)(=O)c4cc(Cl)ccc4F)cc3)nc(OCCN(C)CCO)c12 recordedmetric="solubility at 2 h" unittag=µM reportedmeasurement=75
compoundstructurestring=Cc1n[nH]c2nc(-c3ccc(NS(=O)(=O)c4ccccn4)cc3)nc(O[C@@H]3CCN(C)C[C@@H]3F)c12 recordedmetric="solubility at 2 h" unittag=µM reportedmeasurement=32.9
compoundstructurestring=C=CS(=O)(=O)Nc1ccc(-c2nc(OC3CCN(C(C)C)CC3)c3c(C)n[nH]c3n2)cc1 recordedmetric="solubility at 2 h" unittag=µM reportedmeasurement=279
compoundstructurestring=Cc1n[nH]c2nc(-c3ccc(NS(=O)(=O)c4cc(Cl)ccc4F)cc3)nc(OC3CCNCC3)c12 recordedmetric="solubility at 2 h" unittag=µM reportedmeasurement=244
compoundstructurestring=Cc1n[nH]c2nc(-c3ccc(NS(=O)(=O)c4cc(Cl)ccc4F)cc3)nc(O[C@@H]3CCNC[C@H]3F)c12 recordedmetric="solubility at 2 h" unittag=µM reportedmeasurement=283
compoundstructurestring=Cc1n[nH]c2nc(-c3ccc(NS(=O)(=O)c4cccnc4)cc3)nc(NCCN(C)C)c12 recordedmetric="solubility at 2 h" unittag=µM reportedmeasurement=274
compoundstructurestring=Cc1n[nH]c2nc(-c3ccc(NS(=O)(=O)c4cc(Cl)ccc4F)cc3)nc(NCCN(C)CCO)c12 recordedmetric="solubility at 2 h" unittag=µM reportedmeasurement=289
compoundstructurestring=Cc1n[nH]c2nc(-c3ccc(NS(=O)(=O)c4cc(Cl)ccc4F)c(F)c3)nc(OC3CCN(C(C)C)CC3)c12 recordedmetric="solubility at 2 h" unittag=µM reportedmeasurement=293
compoundstructurestring=Cc1n[nH]c2nc(-c3ccc(NS(=O)(=O)c4cccnc4)cc3)nc(NCCN(C)CCO)c12 recordedmetric="solubility at 2 h" unittag=µM reportedmeasurement=302
compoundstructurestring=Cc1n[nH]c2nc(-c3ccc(NS(=O)(=O)c4cc(Cl)ccc4F)cc3)nc(O[C@@H]3CN(C)C[C@@H]3F)c12 recordedmetric="solubility at 2 h" unittag=µM reportedmeasurement=262

Alright, here's another compound for you.
Ask: Given the entry Cc1n[nH]c2nc(-c3ccc(NS(=O)(=O)c4cc(Cl)ccc4F)cc3)nc(O[C@@H]3CNCC3(F)F)c12 , report its measured solubility at 2 h.
Result: 265

----------
assay: physchem; settings: 25 °C, pH 5, fessif, kinetic from dmso stock
recordedMetric: solubility at 2 h (µM)
Express your answer in µM, writing the number without its unit.

Look over these answered cases.
compoundstructurestring=Cc1n[nH]c2nc(-c3ccc(NS(=O)(=O)c4cc(Cl)ccc4F)cc3)nc(N(C)CCN(C)C)c12 reportedmeasurement=136
compoundstructurestring=Cc1n[nH]c2nc(-c3ccc(NS(=O)(=O)c4cc(Cl)ccc4F)cc3)nc(O[C@H]3CCNC3)c12 reportedmeasurement=178
compoundstructurestring=Cc1n[nH]c2nc(-c3ccc(NS(=O)(=O)c4cc(OC(C)C)ccn4)cc3)nc(NCCN(C)C)c12 reportedmeasurement=311

Alright, here's another molecule for you.
Ask: Given the entry Cc1n[nH]c2nc(-c3ccc(NS(=O)(=O)c4cc(F)ccc4F)cc3)nc(NCCN(C)C)c12 , report its measured solubility at 2 h.
Result: 277
